- Target Or Test System: cytochrome P450 3A4 (Homo sapiens, UniProt P08684)
- Method Description: CYP450 inhibition in human liver microsomes, 3A4
- Type: in vitro ADME
Readout Kind: pIC50
Numbers only, as −log10 of the molar value.

# get_value(readout= pIC50, system= cytochrome P450 3A4 (Homo sapiens, UniProt P08684)) for O=C(N[C@H]1CCCC[C@@H]1O)[C@H]1CN(Cc2ccc(-n3cccn3)cc2)c2ccccc2O1 [VU0486846]
5.30

###

- Method Description: Rat brain homogenate binding
- Format: in vitro ADME
Readout Kind: fraction unbound
Give bare numbers.

What does the record list as fraction unbound for O=C(N[C@H]1CCCC[C@@H]1O)[C@H]1CN(Cc2ccc(-n3cccn3)cc2)c2ccccc2O1 [VU0486846] ?
0.03

###

- Target Or Test System: M1 (Homo sapiens)
- Method Description: Calcium mobilization assay, high expression human M1 cell line
- Format: cell-based
- Run Parameters: Human M1 CRC EC50, Figure 4A
Readout Kind: pEC50
One number for each entry, as −log10 of the molar value.

What does the record list as pEC50 for O=C(N[C@H]1CCCC[C@@H]1O)[C@H]1CN(Cc2ccc(-n3cccn3)cc2)c2ccccc2O1 [VU0486846] ?
6.51

###

- Method Description: Cynomolgus monkey IV/PO PK study
- Format: in vivo
- Run Parameters: male, cynomolgus monkey, plasma, intravenous, 1 mg/kg
Readout Kind: clearance (mL/min/kg)
Numbers only, in mL/min/kg.

What does the record list as clearance for O=C(N[C@H]1CCCC[C@@H]1O)[C@H]1CN(Cc2ccc(-n3cccn3)cc2)c2ccccc2O1 [VU0486846] ?
18

###

- Method Description: Mouse plasma-brain exposure
- Assay type: in vivo
- Run Parameters: male, C57BL/6J, brain and plasma, intraperitoneal, 100 mg/kg
Readout Kind: Kp at 0.25 h
Numbers only.

What does the record list as Kp at 0.25 h for `O=C(N[C@H]1CCCC[C@@H]1O)[C@H]1CN(Cc2ccc(-n3cccn3)cc2)c2ccccc2O1` ?
0.67

###

- Target Or Test System: mouse M1 (Mus musculus, UniProt P12657)
- Method Description: Calcium mobilization assay, mouse M1 cell line with low expression
- Type: cell-based
- Run Parameters: M1 PAM EC50, mouse M1 cell line
Readout Kind: EC50
Write down the value, and be sure its unit follows.

What does the record list as EC50 for `O=C(N[C@H]1CCCC[C@@H]1O)[C@H]1CN(Cc2ccc(-n3cccn3)cc2)c2ccccc2O1` ?
600 nM

###

- Target Or Test System: M1 (Homo sapiens)
- Method Description: M1 PAM potency at increasing ACh concentration
- Format: cell-based
- Run Parameters: M1 PAM potency, very low level of ACh (~EC9)
Readout Kind: EC50 (nM)
Numbers only, in nM.

What does the record list as EC50 for `O=C(N[C@H]1CCCC[C@@H]1O)[C@H]1CN(Cc2ccc(-n3cccn3)cc2)c2ccccc2O1` ?
430

###

- Target Or Test System: dog M1 (Canis lupus familiaris)
- Method Description: Calcium mobilization assay, low expression M1 dog line
- Assay type: cell-based
- Run Parameters: M1 PAM pEC50, dog M1 line, low expression
Readout Kind: pEC50
Answers are plain numbers, as −log10 of the molar value.

What does the record list as pEC50 for `O=C(N[C@H]1CCCC[C@@H]1O)[C@H]1CN(Cc2ccc(-n3cccn3)cc2)c2ccccc2O1` ?
6.41

###

- Method Description: Plasma protein binding by equilibrium dialysis, rat
- Format: in vitro ADME
- Run Parameters: pH 7.4
Readout Kind: fraction unbound at 4 h
Numbers only.

What does the record list as fraction unbound at 4 h for O=C(N[C@H]1CCCC[C@@H]1O)[C@H]1CN(Cc2ccc(-n3cccn3)cc2)c2ccccc2O1 [VU0486846] ?
0.11

###

- Method Description: Rat brain:plasma distribution
- Assay type: in vivo
- Run Parameters: male, Sprague-Dawley, brain and plasma, intravenous
Readout Kind: Kp uu at 0.25 h
Numbers only.

What does the record list as Kp uu at 0.25 h for O=C(N[C@H]1CCCC[C@@H]1O)[C@H]1CN(Cc2ccc(-n3cccn3)cc2)c2ccccc2O1 [VU0486846] ?
0.05

###

- Target Or Test System: cytochrome P450 2C9 (Homo sapiens, UniProt P11712)
Readout Kind: pIC50
Numbers only, as −log10 of the molar value.

What does the record list as pIC50 for O=C(N[C@H]1CCCC[C@@H]1O)[C@H]1CN(Cc2ccc(-n3cccn3)cc2)c2ccccc2O1 [VU0486846] ?
4.73

###

- Target Or Test System: cytochrome P450 1A2 (Homo sapiens)
- Sequence (P05177 1-516): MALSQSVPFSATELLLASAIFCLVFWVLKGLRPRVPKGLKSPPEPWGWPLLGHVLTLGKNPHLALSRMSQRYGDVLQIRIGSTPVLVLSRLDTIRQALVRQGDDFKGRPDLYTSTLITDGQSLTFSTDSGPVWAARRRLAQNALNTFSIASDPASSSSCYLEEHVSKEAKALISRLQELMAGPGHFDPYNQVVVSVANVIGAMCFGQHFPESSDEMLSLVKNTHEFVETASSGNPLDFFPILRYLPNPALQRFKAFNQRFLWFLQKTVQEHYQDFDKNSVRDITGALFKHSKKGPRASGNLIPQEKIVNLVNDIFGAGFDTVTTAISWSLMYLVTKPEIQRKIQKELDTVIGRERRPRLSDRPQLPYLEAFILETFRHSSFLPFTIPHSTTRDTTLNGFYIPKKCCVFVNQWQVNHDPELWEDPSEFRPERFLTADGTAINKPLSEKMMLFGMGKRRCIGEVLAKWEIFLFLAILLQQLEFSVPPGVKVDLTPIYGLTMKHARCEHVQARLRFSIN
pIC50: −log10 of the molar value.
Readout Kind: pIC50

What does the record list as pIC50 for `O=C(N[C@H]1CCCC[C@@H]1O)[C@H]1CN(Cc2ccc(-n3cccn3)cc2)c2ccccc2O1` ?
< 4.52

###

- Target Or Test System: rat M1 (Rattus norvegicus, UniProt P08482)
- Sequence (P08482 1-460): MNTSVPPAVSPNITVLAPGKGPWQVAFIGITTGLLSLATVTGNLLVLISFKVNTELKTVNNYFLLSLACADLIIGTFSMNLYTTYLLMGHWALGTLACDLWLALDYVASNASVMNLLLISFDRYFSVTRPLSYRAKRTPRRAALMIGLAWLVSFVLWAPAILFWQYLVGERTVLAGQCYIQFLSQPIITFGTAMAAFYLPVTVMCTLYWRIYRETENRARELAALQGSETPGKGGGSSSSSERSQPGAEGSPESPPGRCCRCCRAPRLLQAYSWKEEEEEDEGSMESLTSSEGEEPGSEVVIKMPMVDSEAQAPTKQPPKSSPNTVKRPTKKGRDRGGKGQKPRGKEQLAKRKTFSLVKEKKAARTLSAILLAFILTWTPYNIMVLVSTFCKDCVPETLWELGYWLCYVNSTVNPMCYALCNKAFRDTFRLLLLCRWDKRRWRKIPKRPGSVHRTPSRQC
- Method Description: Calcium mobilization assay, rat M1 cell line
- Format: cell-based
- Run Parameters: Rat M1 CRC EC50, Figure 4B
Readout Kind: EC50
Write down the value, and be sure its unit follows.

What does the record list as EC50 for `O=C(N[C@H]1CCCC[C@@H]1O)[C@H]1CN(Cc2ccc(-n3cccn3)cc2)c2ccccc2O1` ?
253 nM

###

- Method Description: Plasma protein binding by equilibrium dialysis, human
- Format: in vitro ADME
- Run Parameters: pH 7.4
Readout Kind: fraction unbound at 4 h

What does the record list as fraction unbound at 4 h for `O=C(N[C@H]1CCCC[C@@H]1O)[C@H]1CN(Cc2ccc(-n3cccn3)cc2)c2ccccc2O1` ?
0.12

###

- Target Or Test System: dog M1 (Canis lupus familiaris, UniProt A0A8I3RVA9)
- Method Description: Calcium mobilization assay, low expression M1 dog line
- Type: cell-based
- Run Parameters: M1 agonist activity EC50, dog M1 line, compound alone
pEC50: −log10 of the molar value.
Readout Kind: pEC50

What does the record list as pEC50 for `O=C(N[C@H]1CCCC[C@@H]1O)[C@H]1CN(Cc2ccc(-n3cccn3)cc2)c2ccccc2O1` ?
< 5.00

###

- Target Or Test System: P-gp (Homo sapiens, UniProt P08183)
- Sequence (P08183 whole entry): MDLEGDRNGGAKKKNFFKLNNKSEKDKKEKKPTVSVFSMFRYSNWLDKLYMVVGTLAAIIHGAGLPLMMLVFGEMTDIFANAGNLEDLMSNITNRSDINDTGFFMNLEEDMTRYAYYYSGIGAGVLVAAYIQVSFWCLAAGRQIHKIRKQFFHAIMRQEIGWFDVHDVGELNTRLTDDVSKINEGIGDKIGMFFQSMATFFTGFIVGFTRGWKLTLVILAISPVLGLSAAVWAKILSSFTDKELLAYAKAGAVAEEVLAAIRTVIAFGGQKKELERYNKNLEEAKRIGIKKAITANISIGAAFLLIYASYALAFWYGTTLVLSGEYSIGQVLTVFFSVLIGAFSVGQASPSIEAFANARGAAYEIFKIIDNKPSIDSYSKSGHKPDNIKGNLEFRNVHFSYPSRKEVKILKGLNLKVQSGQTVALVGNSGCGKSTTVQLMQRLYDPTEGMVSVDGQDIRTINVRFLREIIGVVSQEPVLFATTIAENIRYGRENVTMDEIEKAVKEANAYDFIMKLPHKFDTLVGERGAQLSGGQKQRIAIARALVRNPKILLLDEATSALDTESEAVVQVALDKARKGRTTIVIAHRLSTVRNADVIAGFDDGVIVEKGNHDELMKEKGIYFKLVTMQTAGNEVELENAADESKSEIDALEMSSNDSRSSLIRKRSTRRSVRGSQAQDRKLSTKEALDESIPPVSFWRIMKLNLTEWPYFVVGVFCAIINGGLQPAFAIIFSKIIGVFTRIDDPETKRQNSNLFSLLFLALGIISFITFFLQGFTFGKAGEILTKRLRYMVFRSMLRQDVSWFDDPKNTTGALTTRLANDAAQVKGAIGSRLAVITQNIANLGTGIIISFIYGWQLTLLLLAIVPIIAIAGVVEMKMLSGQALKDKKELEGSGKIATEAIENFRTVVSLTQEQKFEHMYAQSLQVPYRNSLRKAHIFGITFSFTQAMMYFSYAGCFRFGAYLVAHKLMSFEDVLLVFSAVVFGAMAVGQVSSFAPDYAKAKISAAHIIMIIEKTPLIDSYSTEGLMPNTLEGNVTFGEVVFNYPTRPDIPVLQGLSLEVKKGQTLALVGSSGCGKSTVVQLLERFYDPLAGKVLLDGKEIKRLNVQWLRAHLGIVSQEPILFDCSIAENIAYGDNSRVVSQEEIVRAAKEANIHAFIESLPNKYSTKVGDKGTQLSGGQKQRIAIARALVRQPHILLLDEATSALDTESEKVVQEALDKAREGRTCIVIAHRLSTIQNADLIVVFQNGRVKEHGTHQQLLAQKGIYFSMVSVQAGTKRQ
- Method Description: MDCK P-gp efflux and permeability
- Type: in vitro ADME
- Run Parameters: human, MDCK-MDR1
Readout Kind: efflux ratio
Give bare numbers.

What does the record list as efflux ratio for `O=C(N[C@H]1CCCC[C@@H]1O)[C@H]1CN(Cc2ccc(-n3cccn3)cc2)c2ccccc2O1` ?
0.9

###

- Target Or Test System: cytochrome P450 2D6 (Homo sapiens, UniProt P10635)
- Sequence (P10635 whole entry): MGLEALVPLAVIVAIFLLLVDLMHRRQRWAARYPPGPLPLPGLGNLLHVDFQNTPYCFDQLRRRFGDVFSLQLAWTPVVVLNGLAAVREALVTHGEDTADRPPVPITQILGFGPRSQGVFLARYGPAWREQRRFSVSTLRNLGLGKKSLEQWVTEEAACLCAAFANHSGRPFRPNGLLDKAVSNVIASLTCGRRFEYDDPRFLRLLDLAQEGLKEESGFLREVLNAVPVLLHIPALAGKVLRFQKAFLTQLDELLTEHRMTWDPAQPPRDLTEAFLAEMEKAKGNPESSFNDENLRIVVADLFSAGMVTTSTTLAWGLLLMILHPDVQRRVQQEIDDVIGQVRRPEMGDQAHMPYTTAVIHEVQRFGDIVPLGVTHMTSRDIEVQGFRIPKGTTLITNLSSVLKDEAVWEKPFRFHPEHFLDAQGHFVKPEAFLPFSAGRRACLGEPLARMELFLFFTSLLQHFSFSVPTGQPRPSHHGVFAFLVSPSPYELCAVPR
Readout Kind: IC50 (µM)
Give bare numbers, in µM.

What does the record list as IC50 for `O=C(N[C@H]1CCCC[C@@H]1O)[C@H]1CN(Cc2ccc(-n3cccn3)cc2)c2ccccc2O1` ?
29.8
